assay remarks: Solution stability test (residual ratio and generation of active form in buffers of pH 2.0 to 9.0)
Type: physicochemical
run conditions: pH7.4 buffer, 25° C., 25 umol/L, 9 hr
Counter-ions that a name gives are not always drawn.
Short version: Residual ratio at least 20% is satisfied, less is not satisfied.

Known results for compounds:
CN1CC[C@H](c2c(OC(=O)N(C)CCN)cc(O)c3c(=O)cc(-c4ccccc4Cl)oc23)[C@H](O)C1    not satisfied
C[C@H]1COc2c1c(OC(=O)NCCNCC(=O)O)c(OC(=O)NCCNCC(=O)O)c1c3c(ccc21)C(C)(C)CCC3 [Example 12, dihydrochloride]    not satisfied
CC(=O)c1cc2c(OC(=O)NCCNCC(=O)O)c3ccsc3c(OC(=O)NCCNCC(=O)O)c2o1 [Example 1, dihydrochloride]    not satisfied
C[C@H]1COc2c1c(OC(=O)NCCCNCC(=O)O)c(OC(=O)NCCCNCC(=O)O)c1c3c(ccc21)C(C)(C)CCC3 [Example 13, dihydrochloride]    satisfied
NCCCNC(=O)Oc1c(OC(=O)NCCCN)c(-c2ccccc2)c2c(c1-c1ccccc1)OCO2    satisfied
CC(=O)c1cc2c(O)c3c(O)cccc3c(OC(=O)NCCCN)c2o1 [Reference Example 9, hydrochloride]    satisfied

Shifting focus to the compound that follows.
Query string: Tell me whether Residual ratio is at least 20% here: Cc1cc(OC(=O)NCCNCC(=O)O)c2ccccc2c1OC(=O)NCCNCC(=O)O [Example 2, dihydrochloride]
Result string: not satisfied
